measurement_target: DNA (cytosine-5)-methyltransferase 1 (Homo sapiens) (UniProt P26358)
Sequence (P26358 504-1616 limits assumed): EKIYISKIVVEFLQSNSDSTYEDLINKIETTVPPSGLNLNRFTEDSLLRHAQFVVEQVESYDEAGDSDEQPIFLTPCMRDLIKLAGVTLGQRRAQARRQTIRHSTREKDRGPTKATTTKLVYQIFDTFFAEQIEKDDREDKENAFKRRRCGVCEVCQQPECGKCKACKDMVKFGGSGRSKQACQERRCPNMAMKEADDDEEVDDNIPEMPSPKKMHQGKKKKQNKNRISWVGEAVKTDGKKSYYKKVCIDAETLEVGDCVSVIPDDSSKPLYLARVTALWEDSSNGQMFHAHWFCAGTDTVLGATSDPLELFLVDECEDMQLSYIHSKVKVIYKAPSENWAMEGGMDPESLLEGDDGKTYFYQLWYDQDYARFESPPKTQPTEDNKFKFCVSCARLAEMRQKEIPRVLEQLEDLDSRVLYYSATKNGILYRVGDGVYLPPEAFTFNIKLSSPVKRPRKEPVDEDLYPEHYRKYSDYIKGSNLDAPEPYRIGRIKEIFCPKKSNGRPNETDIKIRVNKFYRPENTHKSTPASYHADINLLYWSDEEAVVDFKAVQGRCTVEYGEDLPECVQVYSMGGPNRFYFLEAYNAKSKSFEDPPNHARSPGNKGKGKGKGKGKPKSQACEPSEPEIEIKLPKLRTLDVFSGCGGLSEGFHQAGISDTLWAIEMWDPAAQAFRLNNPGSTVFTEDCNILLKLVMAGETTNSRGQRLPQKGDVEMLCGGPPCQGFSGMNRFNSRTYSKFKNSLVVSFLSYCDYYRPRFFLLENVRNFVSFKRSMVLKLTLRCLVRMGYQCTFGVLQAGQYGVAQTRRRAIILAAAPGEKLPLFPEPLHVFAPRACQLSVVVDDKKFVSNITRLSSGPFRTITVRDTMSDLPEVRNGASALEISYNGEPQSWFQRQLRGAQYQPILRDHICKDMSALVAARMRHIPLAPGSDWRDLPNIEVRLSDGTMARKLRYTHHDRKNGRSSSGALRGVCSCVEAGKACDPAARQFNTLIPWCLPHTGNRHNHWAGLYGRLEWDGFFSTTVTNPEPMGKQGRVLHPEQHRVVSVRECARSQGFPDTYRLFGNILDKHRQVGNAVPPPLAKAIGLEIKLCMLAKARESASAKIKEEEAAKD
experiment_summary: inhibition of DNA methyltransferase DNMT1 – biochemical, molecular beacon, fluorescence, HinP1I cleavage, uHTS, primary screen (AID 588458)
reported_conditions: at 10 µM, active compounds read high
Hit rate of the full screen: of about 360,000 compounds, about 3,000 (0.83%) were called active. What follows is part of a selection rich in actives, with near analogues and random picks from the rest.
attribute_measured: inhibition (reported as % activation of signal)

Measured inhibition (reported as % activation of signal), O=C(CCN1CCc2ccccc2C(O)(c2ccccc2)C1)c1ccc2c(c1)OCCO2 (stereo unspecified) : -2.82% (inactive)

Measured inhibition (reported as % activation of signal), `COc1ccc(CC(=O)NCc2nnc(SCC(=O)Nc3ncc(C)s3)n2C)cc1` : -1.25% (inactive)

Measured inhibition (reported as % activation of signal), `CCc1nn(-c2cc(Oc3cccc4ccccc34)nc(-c3ccccc3)n2)c(N)c1C#N` : 56.2% (active)

Measured inhibition (reported as % activation of signal), `CCN(CC)c1ccc(NC(=O)c2ccc(Cl)nc2)cc1` : -2.12% (inactive)

Measured inhibition (reported as % activation of signal), CC1(C)C2CC=C(/C=N/NC(=O)c3ccc(Cl)cc3)C1C2 (stereo unspecified) : 2.7% (inactive)

Measured inhibition (reported as % activation of signal), O=C(NC(Cc1ccccc1)C(=O)O)/C(=C\c1ccccc1)NC(=O)c1ccco1 (stereo unspecified) : -3.34% (inactive)

Measured inhibition (reported as % activation of signal), `Cc1cc(C)c(C(=O)CSc2nc(C)cc(=O)[nH]2)c(C)c1` : -2.03% (inactive)

Measured inhibition (reported as % activation of signal), `Nc1nc(Br)c2ccccc2c1-c1ccc(F)cc1` : -9.34% (inactive)

Measured inhibition (reported as % activation of signal), `Nc1nc(NCc2ccccc2)n(-c2ccccc2)n1` : -0.22% (inactive)

Measured inhibition (reported as % activation of signal), `Cc1ccccc1CSCC(=O)NC(=O)NC(C)(C)C` : -1.56% (inactive)

Measured inhibition (reported as % activation of signal), CCCCNC(=O)C1CCCNC1=O (stereo unspecified) : 2.28% (inactive)

Measured inhibition (reported as % activation of signal), Cc1cccc(C)c1NC(=O)C1(C)c2cccc[n+]2CC(=O)N1Cc1cccs1 (stereo unspecified) : -3.99% (inactive)

Measured inhibition (reported as % activation of signal), `O=C(NNC(=O)c1ccc(Cl)nc1)c1ccc(Br)cc1` : 5.15% (inactive)

Measured inhibition (reported as % activation of signal), `O=C(NNc1ccccn1)c1ccc(Cl)nc1` : 80.7% (active)

Measured inhibition (reported as % activation of signal), `CC(C)(C)n1nc(Cc2cccc3ccccc23)c(C#N)c1N` : 3.39% (inactive)

Measured inhibition (reported as % activation of signal), `CC(C)(C)NC(=O)CSc1nnc(NC(=O)CCc2ccccc2)s1` : -0.32% (inactive)
